Sample A (Bkgd) Signal reference
- System Name: native human ESRRG protein (Homo sapiens)
- Sequence (P62508 1-458): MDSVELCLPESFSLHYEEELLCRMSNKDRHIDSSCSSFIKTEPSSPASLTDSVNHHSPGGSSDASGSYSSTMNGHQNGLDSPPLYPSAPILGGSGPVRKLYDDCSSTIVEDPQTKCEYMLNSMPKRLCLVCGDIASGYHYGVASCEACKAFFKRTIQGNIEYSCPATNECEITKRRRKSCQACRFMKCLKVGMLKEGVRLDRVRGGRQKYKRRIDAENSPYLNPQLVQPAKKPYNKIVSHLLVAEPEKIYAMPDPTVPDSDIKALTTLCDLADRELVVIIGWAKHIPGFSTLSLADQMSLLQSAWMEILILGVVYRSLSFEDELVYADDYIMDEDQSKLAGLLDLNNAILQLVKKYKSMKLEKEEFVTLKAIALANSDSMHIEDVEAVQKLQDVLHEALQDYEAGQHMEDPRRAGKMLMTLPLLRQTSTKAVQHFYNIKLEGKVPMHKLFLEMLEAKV
- Assay Comment: peptide microarray screening for ESRRG binding (Iteration 1 and 2)
- Run Parameters: Iteration 1 primary screen; fluorescence intensity units
- Source text: The BLOSUM62 matrix was divided into Tiers based, with Tier 1 comprising “most conserved” (lowest penalty) and Tier 3 comprising “least conserved” (highest penalty) mutations observed in nature. […] Highest binders (based on relative fluorescence signal) were selected and iteratively sequence expanded and arrayed (Iteration 2); and ESRRG binding sequences were selected as above. […]
Field format: numeric only.

Below are worked cases with known answers.
- Substance: "ANNLWLLH"
  Sample A (Bkgd) Signal: 41.92
- Substance: "ANNIWLLH"
  Sample A (Bkgd) Signal: 30.52
- Substance: "ANNSLLLH"
  Sample A (Bkgd) Signal: 14.53
- Substance: "Ac-NSLRKHLL-NH2 (C-terminus assumed)"
  Sample A (Bkgd) Signal: 20.79
- Substance: "Ac-AANMFLLL-NH2 (C-terminus assumed)"
  Sample A (Bkgd) Signal: 42.26
- Substance: "Ac-NSLLKHLL-NH2 (C-terminus assumed)"
  Sample A (Bkgd) Signal: 73.81
- Substance: "AANMSLLL"
  Sample A (Bkgd) Signal: 16.99
- Substance: "AANNYLLL"
  Sample A (Bkgd) Signal: 31.22

Query: For the substance Ac-AIRGALMG-NH2 (C-terminus assumed) , give its reported Sample A (Bkgd) Signal.
Result: 19.03

Query: For the substance `ANNILLLH` , give its reported Sample A (Bkgd) Signal.
Result: 13.51

Query: For the substance `IKQNYNNS` , give its reported Sample A (Bkgd) Signal.
Result: 23.70

Query: For the substance `RKAIFGKY` , give its reported Sample A (Bkgd) Signal.
Result: 23.63

Query: For the substance `LHLKGSQT` , give its reported Sample A (Bkgd) Signal.
Result: 6.97

Query: For the substance `NSLSWHLL` , give its reported Sample A (Bkgd) Signal.
Result: 25.76

Query: For the substance `NNSWSLHL` , give its reported Sample A (Bkgd) Signal.
Result: 23.54

---

- System Name: native human ESRRG protein (Homo sapiens)
- Sequence (P62508 1-458): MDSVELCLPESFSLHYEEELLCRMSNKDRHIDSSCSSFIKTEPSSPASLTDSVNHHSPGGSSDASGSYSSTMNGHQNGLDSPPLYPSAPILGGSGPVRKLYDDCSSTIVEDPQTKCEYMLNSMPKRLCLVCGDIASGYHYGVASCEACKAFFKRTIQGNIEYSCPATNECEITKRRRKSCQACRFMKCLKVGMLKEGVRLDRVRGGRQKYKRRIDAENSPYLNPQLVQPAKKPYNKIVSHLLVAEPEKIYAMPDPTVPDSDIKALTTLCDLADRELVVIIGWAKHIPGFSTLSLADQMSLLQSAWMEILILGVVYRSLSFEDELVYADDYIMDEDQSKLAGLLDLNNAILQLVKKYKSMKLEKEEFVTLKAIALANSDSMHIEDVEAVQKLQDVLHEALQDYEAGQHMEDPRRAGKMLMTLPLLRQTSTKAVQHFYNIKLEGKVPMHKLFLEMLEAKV
- Assay Comment: peptide microarray screening for ESRRG binding (Iteration 1 and 2)
- Run Parameters: Iteration 2 iterative screen; fluorescence intensity units
Outcome Measure: Sample B (Probe) Signal

- Substance: "LFLLQQDD"
  Sample B (Probe) Signal: "2,423.10"
- Substance: "HFKLKQGG"
  Sample B (Probe) Signal: "3,108.23"
- Substance: "RRSYPRGR"
  Sample B (Probe) Signal: "1,661.87"
- Substance: "NFNYLLPH"
  Sample B (Probe) Signal: "13,817.90"
- Substance: "DNNYLLLL"
  Sample B (Probe) Signal: "2,242.02"
- Substance: "DINFSLGI"
  Sample B (Probe) Signal: "4,797.29"
- Substance: "FYNMYLLN"
  Sample B (Probe) Signal: "1,558.62"
- Substance: "WGKLKQGE"
  Sample B (Probe) Signal: "1,231.15"
- Substance: "HLKLKQEN"
  Sample B (Probe) Signal: "1,745.92"
- Substance: "VLLHYGLY"
  Sample B (Probe) Signal: "1,796.19"

Note: attention shifts to another entry.
Query: For the substance `LFKLKQDG` , give its reported Sample B (Probe) Signal.
Result: 2,776.37

Origin of measurements: patent US20130053541A1
